The measurements presented in this section are drawn from ChEMBL document CHEMBL3603817.

# test: Solubility by CLND method
# Assay type: physicochemical
# binarize solubility kinetic: threshold 70 µg/mL inclusive, high side Fulfilled, low side Not fulfilled

### Prompt Is the recorded value of solubility kinetic equal to or greater than 70 µg/mL for this compound? Nc1ccccc1NC(=O)c1ccc(CSC2=N[C@@H](c3ccccc3)CN2)cc1
### Response Fulfilled

### Prompt Could you verify whether the entry Nc1ccccc1NC(=O)c1ccc(CNC2=N[C@@H](c3ccccc3)[C@H](c3ccccc3)O2)cc1 shows solubility kinetic of no less than 70 µg/mL?
### Response Not fulfilled

### Prompt # bool: solubility kinetic of Nc1ccccc1NC(=O)c1ccc(CNC2=NC[C@H](c3ccccc3)O2)cc1 >= 70 µg/mL
### Response Fulfilled

### Prompt Answer whether solubility kinetic of Nc1ccccc1NC(=O)c1ccc(CSC2=N[C@@H](Cc3ccccc3)CO2)cc1 is greater than or equal to 70 µg/mL.
### Response Not fulfilled

### Prompt Is the recorded value of solubility kinetic equal to or greater than 70 µg/mL for this compound? Nc1ccccc1NC(=O)c1ccc(CNc2nccc(-c3cccnc3)n2)cc1
### Response Fulfilled

### Prompt Check the entry Nc1ccccc1NC(=O)c1ccc(CNC2=NC(c3ccc(F)cc3)CO2)cc1 (centres undefined) : does solubility kinetic equal or exceed 70 µg/mL?
### Response Fulfilled

### Prompt Answer whether solubility kinetic of Nc1ccccc1NC(=O)c1ccc(CNC2=N[C@@H](c3cccnc3)CO2)cc1 is greater than or equal to 70 µg/mL.
### Response Fulfilled

### Prompt Entry Nc1ccccc1NC(=O)c1ccc(CNC2=N[C@H](c3ccccc3)CO2)cc1 : is its solubility kinetic no less than 70 µg/mL?
### Response Fulfilled

### Prompt Assess whether reported solubility kinetic for Nc1ccccc1NC(=O)c1ccc(CNC2=NC(c3ccc(C(F)(F)F)cc3)CO2)cc1 (centres undefined) sits at 70 µg/mL or higher.
### Response Not fulfilled

### Prompt Test whether the compound Nc1ccccc1NC(=O)c1ccc(CNC2=N[C@@H](c3ccc(O)cc3)CO2)cc1 records solubility kinetic of 70 µg/mL or higher.
### Response Fulfilled

### Prompt Say whether Nc1ccccc1NC(=O)c1ccc(CNC2=N[C@@H](Cc3ccccc3)CO2)cc1 shows solubility kinetic of 70 µg/mL or more.
### Response Fulfilled

### Prompt # check: solubility kinetic of Nc1ccccc1NC(=O)c1ccc(CNC2=NC(c3ccccc3)(c3ccccc3)CO2)cc1 is greater than or equal to 70 µg/mL
### Response Not fulfilled

### Prompt Please tell me: is the compound Nc1ccccc1NC(=O)c1ccc(CNC2=NC[C@@H](c3ccccc3)O2)cc1 at or over 70 µg/mL in terms of solubility kinetic?
### Response Fulfilled

### Prompt Confirm if solubility kinetic reported for the compound Nc1ccccc1NC(=O)c1ccc(CNC2=N[C@@H](c3ccccc3)CN2)cc1 is 70 µg/mL or above.
### Response Fulfilled

### Prompt Decide: is the reported value of solubility kinetic for Nc1ccccc1NC(=O)c1ccc(CNC2=N[C@H](Cc3c[nH]cn3)CO2)cc1 equal to or greater than 70 µg/mL?
### Response Fulfilled

### Prompt Decide: solubility kinetic of Nc1ccccc1NC(=O)c1ccc(CSC2=N[C@@H](c3cccnc3)CO2)cc1 >= 70 µg/mL?
### Response Fulfilled

### Prompt # bool: solubility kinetic of Nc1ccccc1NC(=O)c1ccc(CNC2=NC(c3cccc(F)c3)CO2)cc1 (centres undefined) >= 70 µg/mL
### Response Fulfilled

### Prompt # check: solubility kinetic of Nc1ccccc1NC(=O)c1ccc(CNC2=N[C@@H](Cc3c[nH]cn3)CO2)cc1 is greater than or equal to 70 µg/mL
### Response Fulfilled

### Prompt Would you say Nc1ccccc1NC(=O)c1ccc(CNC2=N[C@H](c3ccccc3)[C@H](c3ccccc3)O2)cc1 shows solubility kinetic at minimum 70 µg/mL?
### Response Fulfilled
